tested-system: UT-B (Homo sapiens, UniProt Q13336)
Sequence (Q13336 whole entry): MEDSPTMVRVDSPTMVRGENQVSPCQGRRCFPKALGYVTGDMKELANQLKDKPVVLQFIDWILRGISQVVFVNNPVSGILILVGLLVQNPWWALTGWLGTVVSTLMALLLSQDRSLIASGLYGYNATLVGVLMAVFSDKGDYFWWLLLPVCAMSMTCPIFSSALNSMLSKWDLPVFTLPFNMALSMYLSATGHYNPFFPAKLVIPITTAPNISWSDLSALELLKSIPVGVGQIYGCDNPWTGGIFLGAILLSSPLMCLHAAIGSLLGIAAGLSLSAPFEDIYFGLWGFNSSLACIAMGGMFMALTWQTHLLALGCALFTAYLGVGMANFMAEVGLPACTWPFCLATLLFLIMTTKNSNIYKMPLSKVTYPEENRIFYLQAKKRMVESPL
experimental-protocol: erythrocyte lysis assay for UT-B inhibition
Format: cell-based, mouse
condition-description: IC50 (UT-B inhibition activity), mouse erythrocyte lysis assay (n = 3), fit to single-site saturation model
assay-metric: IC50

Field: IC50 (UT-B (Homo sapiens, UniProt Q13336)). Entry: CC(F)(F)c1ccc(S(=O)(=O)c2nnn3c2nc(NCC2CCC2)c2sccc23)cc1 [Compound 4f] > 800 nM

Field: IC50 (UT-B (Homo sapiens, UniProt Q13336)). Entry: CC(F)(F)c1ccc(S(=O)(=O)c2nnn3c2nc(NCC2CC2)c2sccc23)cc1 [Compound 4e] > 800 nM

Field: IC50 (UT-B (Homo sapiens, UniProt Q13336)). Entry: CC(F)(F)c1ccc(S(=O)(=O)c2nnn3c2nc(NCc2ccccc2)c2sccc23)cc1 [Compound 4d] > 800 nM

* * *

tested-system: UT-B (Homo sapiens, UniProt Q13336)
experimental-protocol: erythrocyte lysis assay for UT-B inhibition
Type: cell-based, mouse
condition-description: IC50 (inhibitory potency, abstract), UT-B inhibition
Measured IC50 accompanies every entry in the list below.

| structure-as-smiles | IC50 |
| --- | --- |
| Cc1csc(CNc2nc3c(S(=O)(=O)c4ccc(C(C)(F)F)cc4)nnn3c3ccsc23)c1 | ~40 nM |

Could you now look at the following compound, please?
Recorded IC50 of CC(F)(F)c1ccc(S(=O)(=O)c2nnn3c2nc(NCc2ccsc2)c2sccc23)cc1 , please. ~40 nM
